system: HIV; assay: MT4 assay: antiviral HIV activity in MT-4 cells; format: cell-based; conditions: Human immunodeficiency virus 1, MT4, 96 h, read-out: HIV MT4 Assay IC50 (μM), HTLV-1 transformed cell line MT-4; read-out 96 hours later with cell titer glo; 10 point dose response
Counter-ions that a name gives are not always drawn.
Sorting guide: entries reporting IC50 beneath 0.07 µM go in the 1 (yes) pile, the rest go in the 0 (no) pile.

# COMPOUND, EXPERIMENTAL_SYSTEM, CATEGORY
records = [
    ("Cc1nc2c(ccn2Cc2ccc(F)cc2Cl)c(-c2ccc3c(c2)CCCO3)c1C(OC(C)(C)C)C(=O)O (stereo not drawn) [Example 31]", "HIV", "1 (yes)"),
    ("Cc1ccc(-c2c(C(OC(C)(C)C)C(=O)O)c(C)nc3c2ccn3Cc2ccc(F)c(C(F)(F)F)c2)cc1 (stereo not drawn) [Example 69]", "HIV", "0 (no)"),
    ("Cc1nc2c(ccn2[C@@H](C)c2ccc(F)cc2)c(-c2ccc3c(c2)CCCO3)c1[C@H](OC(C)(C)C)C(=O)O [Example 85]", "HIV", "0 (no)"),
    ("Cc1ccc(-c2c([C@H](OC(C)(C)C)C(=O)O)c(C)nc3c2ccn3Cc2ccc(F)cc2)cc1 [Example 2]", "HIV", "0 (no)"),
    ("Cc1ccc(-c2c([C@H](OC(C)(C)C)C(=O)O)c(C)nc3c2ccn3Cc2ccc(F)c(F)c2)c(F)c1 [Example 115]", "HIV", "1 (yes)"),
    ("Cc1ccc(-c2c([C@@H](OC(C)(C)C)C(=O)O)c(C)nc3c2ccn3Cc2ccc(F)c(F)c2)cc1 [Example 17]", "HIV", "0 (no)"),
    ("Cc1nc2c(c(-c3ccc4c(c3C)CCCO4)c1[C@H](OC(C)(C)C)C(=O)O)CCN2Cc1ccc(F)c(F)c1 [Example 107, Trifluoroacetic acid salt]", "HIV", "1 (yes)"),
    ("Cc1ccc(-c2c([C@H](OC(C)(C)C)C(=O)O)c(C)nc3c2ccn3Cc2cc(F)c(F)c(F)c2)cc1 [Example 9]", "HIV", "1 (yes)"),
    ("Cc1nc2c(ccn2Cc2ccc(F)cc2Cl)c(-c2ccc(Cl)cc2)c1[C@H](OC(C)(C)C)C(=O)O [Example 89]", "HIV", "1 (yes)"),
]
